# Test system: Staphylococcus epidermidis biofilm
# experiment_summary: Checkerboard combination assay, biofilm inhibition
# Format: cell-based
# experimental_context: natural product alone; S. epidermidis biofilm inhibition
assay_readout: MBIC alone, NPs (µg/mL)

1) CC1=CC(=O)c2c(O)cccc2C1=O [Plumbagin, plumbagin]    8
2) Cc1ccc(C(C)C)c(O)c1 [Thymol, thymol]    213.33
3) O=C(O)c1cc(O)c(O)c(O)c1 [Gallic acid, 3,4,5-trihydroxybenzoic acid]    512
4) COc1cc(/C=C/C(=O)CC(=O)/C=C/c2ccc(O)c(OC)c2)ccc1O [Curcumin, curcumin]    128

----------
The following compounds are shown together with reported log10 of MIC values.
# System: planktonic cells of Staphylococcus saprophyticus
# experiment_summary: Checkerboard combination assay, planktonic cells
# Format: cell-based
# experimental_context: Staphylococcus saprophyticus, 24 h, S. saprophyticus, mean, read-out: MIC alone, ATB
assay_readout: log10 of MIC (log10 of the value in µg/mL)

1) NCC[C@H](O)C(=O)N[C@@H]1C[C@H](N)[C@@H](O[C@H]2O[C@H](CN)[C@@H](O)[C@H](O)[C@H]2O)[C@H](O)[C@H]1O[C@H]1O[C@H](CO)[C@@H](O)[C@H](N)[C@H]1O    1.34
2) C=CC1=C(C(=O)O)N2C(=O)[C@@H](NC(=O)/C(=N\OCC(=O)O)c3csc(N)n3)[C@H]2SC1    2.28
3) CC1(C)S[C@@H]2[C@H](NC(=O)[C@H](N)c3ccc(O)cc3)C(=O)N2[C@H]1C(=O)O    1.34
4) C[C@H]1c2cccc(O)c2C(=O)C2=C(O)[C@]3(O)C(=O)C(C(N)=O)=C(O)[C@@H](N(C)C)[C@@H]3[C@@H](O)[C@@H]21    1.51
5) Cc1nnc(SCC2=C(C(=O)O)N3C(=O)[C@@H](NC(=O)Cn4cnnn4)[C@H]3SC2)s1    1.81
6) CC[C@H]1OC(=O)[C@H](C)[C@@H](O[C@H]2C[C@@](C)(OC)[C@@H](O)[C@H](C)O2)[C@H](C)[C@@H](O[C@@H]2O[C@H](C)C[C@H](N(C)C)[C@H]2O)[C@](C)(O)C[C@@H](C)C(=O)[C@H](C)[C@@H](O)[C@]1(C)O    0.67

# credit: paper PMC12339163
